This listing pairs binders with measured pIC50.
- Target Or System: T1, cynomolgus IgE (recombinant chimaeric D12 variable region / cynomolgus IgE constant region) (cynomolgus monkey (constant region))
- T1 construct: also called cyno IgE; cynomolgus IgE (in house HEK-EBNA derived)
- T1 sequence (heavy, as listed by the source limits assumed, chain 1 of 2): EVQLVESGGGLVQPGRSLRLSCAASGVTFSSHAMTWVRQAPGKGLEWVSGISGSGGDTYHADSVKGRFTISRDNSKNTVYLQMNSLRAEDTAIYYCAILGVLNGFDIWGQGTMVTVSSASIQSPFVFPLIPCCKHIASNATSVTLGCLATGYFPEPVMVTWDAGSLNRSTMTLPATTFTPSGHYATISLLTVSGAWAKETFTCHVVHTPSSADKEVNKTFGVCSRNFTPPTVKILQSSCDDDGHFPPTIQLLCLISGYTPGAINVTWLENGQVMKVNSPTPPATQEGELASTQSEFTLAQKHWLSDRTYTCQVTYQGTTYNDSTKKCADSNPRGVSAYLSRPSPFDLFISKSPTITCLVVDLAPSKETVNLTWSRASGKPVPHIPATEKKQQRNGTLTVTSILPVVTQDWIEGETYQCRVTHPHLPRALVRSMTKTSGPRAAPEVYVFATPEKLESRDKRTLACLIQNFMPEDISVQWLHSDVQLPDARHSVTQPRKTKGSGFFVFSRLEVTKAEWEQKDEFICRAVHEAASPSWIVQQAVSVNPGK
- T1 sequence (light, as listed by the source limits assumed, chain 2 of 2): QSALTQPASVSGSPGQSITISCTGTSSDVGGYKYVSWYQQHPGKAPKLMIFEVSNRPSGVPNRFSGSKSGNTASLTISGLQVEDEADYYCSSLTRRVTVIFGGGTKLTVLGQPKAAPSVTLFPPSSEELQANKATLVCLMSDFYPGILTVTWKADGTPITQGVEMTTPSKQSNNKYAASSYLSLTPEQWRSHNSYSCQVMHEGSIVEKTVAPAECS
- Protocol Notes: HTRF receptor-ligand competition, scFv titrated; Eu-cryptate cynomolgus IgE binding to human FcεRI-Fc; geomean
// field semantics: pIC50 = negative decimal log of concentration (mol/L)

Some entries whose results are on file:
Antibody 5 (scFv) (scFv, V domains shown, purified scFv) VH: EVQLLESGGGLVQPGGSLRLSCAASGFTFSSYAMSWVRQAPGKGLEWVSAISGSGGRTYYADSVKGRFTISRDNSKNTLYLQMNSLRAEDTAVYYCARHIAVAGTRGFDYWGRGTLVTVSS VL: SYVLTQPPSVSVSPGQTASITCSGDKLGDTYASWYRQRSGQSPVLVIYQDDRRPSGIPERFSGSNSGNTATLTISGTHTMDEADYYCLAWDTRTSGAVFGGGTKLTAL: 6.45
Antibody 27 (scFv) (scFv, V domains shown, purified scFv) VH: EVQLLESGGGLVQPGGSLRLSCAASGFTFSSYAMSWVRQAPGKGLEWVSAISGSGGRTYYADSVKGRFTISRDNSKNTLYLQMNSLRAEDTAVYYCARSTYFASTRGFDYWGRGTLVTVSS VL: SYVLTQPPSVSVSPGQTASITCSGDKLGDTYASWYRQRSGQSPVLVIYQDDKRPSGIPERFSGSNSGNTATLTISGTHTMDEADYYCLAWDTRTSGAVFGGGTKLTVL: 6.42
Antibody 25 (scFv) (scFv, V domains shown, purified scFv) VH: EVQLLESGGGLVQPGGSLRLSCAAPGFTFSSYAMSWVRQAPGKGLEWVSAISGGSGGRTYYADSVKGRFTISRDNSKNTLYLQMNSLRAEDTAVYYCARHIAVAGTRGFDYWGRGTLVTISS VL: SFVLTQPPSVSVSPGQTASITCSGDKLGDTYASWYRQRSGQSPVLVIYQDDKRPSGIPERFSGSNSGNTATLTISGTHTMDEADYYCLAWDTRTSGAVFGGGTKLTVL: 6.73

Next, consider the following binder.
Query: pIC50; subject: Antibody 36 (scFv) (scFv, V domains shown, purified scFv) VH: EVQLLESGGGLVQPGGSLRLSCAASGFTFSSYAMSWVRQAPGKGLEWVSAISGSGGRTYYADSVKGRFTISRDNSKNTLYLQMNSLRAEDTAVYYCARHIAVAGTRGFDYWGRGTLVTVSS VL: SFMLSQPPSVSVSPGQTASITCSGDKLGDTYASWYRQRSGQSPVLVIYQDDKRPSGIPERFSGSNSGNTATLTISGTHTMDEADYYCLAWDTRTSGAVFGGGTKLTVL 6.39
